# TARGET_OF_ASSAY: UniProtKB P07550
# Sequence (P07550 whole entry): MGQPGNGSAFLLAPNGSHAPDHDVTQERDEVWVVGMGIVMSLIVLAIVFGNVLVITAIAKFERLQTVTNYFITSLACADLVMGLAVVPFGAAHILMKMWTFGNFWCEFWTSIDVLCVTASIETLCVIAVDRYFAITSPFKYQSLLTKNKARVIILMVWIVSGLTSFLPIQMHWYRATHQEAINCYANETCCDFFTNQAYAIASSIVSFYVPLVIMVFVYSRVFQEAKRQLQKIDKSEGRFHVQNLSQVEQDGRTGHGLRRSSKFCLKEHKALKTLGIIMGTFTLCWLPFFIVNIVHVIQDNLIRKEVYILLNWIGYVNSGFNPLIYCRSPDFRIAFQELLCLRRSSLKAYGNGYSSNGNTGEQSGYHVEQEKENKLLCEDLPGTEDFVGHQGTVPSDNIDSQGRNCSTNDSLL
ATTRIBUTE_MEASURED: Kd (nM)
Express your answer in nM, writing the number without its unit.

Bench note, UniProtKB P07550: entry CCCc1ccccc1OC[C@@H](O)CNC(C)C [[^3H]-DHA] , its Kd = 0.3
